assayed target: human ACC2 (Homo sapiens, UniProt O00763)
Construct: made in house; host or cells: insect cells (baculoviral expression system)
Sequence (O00763 129-2458 limits assumed): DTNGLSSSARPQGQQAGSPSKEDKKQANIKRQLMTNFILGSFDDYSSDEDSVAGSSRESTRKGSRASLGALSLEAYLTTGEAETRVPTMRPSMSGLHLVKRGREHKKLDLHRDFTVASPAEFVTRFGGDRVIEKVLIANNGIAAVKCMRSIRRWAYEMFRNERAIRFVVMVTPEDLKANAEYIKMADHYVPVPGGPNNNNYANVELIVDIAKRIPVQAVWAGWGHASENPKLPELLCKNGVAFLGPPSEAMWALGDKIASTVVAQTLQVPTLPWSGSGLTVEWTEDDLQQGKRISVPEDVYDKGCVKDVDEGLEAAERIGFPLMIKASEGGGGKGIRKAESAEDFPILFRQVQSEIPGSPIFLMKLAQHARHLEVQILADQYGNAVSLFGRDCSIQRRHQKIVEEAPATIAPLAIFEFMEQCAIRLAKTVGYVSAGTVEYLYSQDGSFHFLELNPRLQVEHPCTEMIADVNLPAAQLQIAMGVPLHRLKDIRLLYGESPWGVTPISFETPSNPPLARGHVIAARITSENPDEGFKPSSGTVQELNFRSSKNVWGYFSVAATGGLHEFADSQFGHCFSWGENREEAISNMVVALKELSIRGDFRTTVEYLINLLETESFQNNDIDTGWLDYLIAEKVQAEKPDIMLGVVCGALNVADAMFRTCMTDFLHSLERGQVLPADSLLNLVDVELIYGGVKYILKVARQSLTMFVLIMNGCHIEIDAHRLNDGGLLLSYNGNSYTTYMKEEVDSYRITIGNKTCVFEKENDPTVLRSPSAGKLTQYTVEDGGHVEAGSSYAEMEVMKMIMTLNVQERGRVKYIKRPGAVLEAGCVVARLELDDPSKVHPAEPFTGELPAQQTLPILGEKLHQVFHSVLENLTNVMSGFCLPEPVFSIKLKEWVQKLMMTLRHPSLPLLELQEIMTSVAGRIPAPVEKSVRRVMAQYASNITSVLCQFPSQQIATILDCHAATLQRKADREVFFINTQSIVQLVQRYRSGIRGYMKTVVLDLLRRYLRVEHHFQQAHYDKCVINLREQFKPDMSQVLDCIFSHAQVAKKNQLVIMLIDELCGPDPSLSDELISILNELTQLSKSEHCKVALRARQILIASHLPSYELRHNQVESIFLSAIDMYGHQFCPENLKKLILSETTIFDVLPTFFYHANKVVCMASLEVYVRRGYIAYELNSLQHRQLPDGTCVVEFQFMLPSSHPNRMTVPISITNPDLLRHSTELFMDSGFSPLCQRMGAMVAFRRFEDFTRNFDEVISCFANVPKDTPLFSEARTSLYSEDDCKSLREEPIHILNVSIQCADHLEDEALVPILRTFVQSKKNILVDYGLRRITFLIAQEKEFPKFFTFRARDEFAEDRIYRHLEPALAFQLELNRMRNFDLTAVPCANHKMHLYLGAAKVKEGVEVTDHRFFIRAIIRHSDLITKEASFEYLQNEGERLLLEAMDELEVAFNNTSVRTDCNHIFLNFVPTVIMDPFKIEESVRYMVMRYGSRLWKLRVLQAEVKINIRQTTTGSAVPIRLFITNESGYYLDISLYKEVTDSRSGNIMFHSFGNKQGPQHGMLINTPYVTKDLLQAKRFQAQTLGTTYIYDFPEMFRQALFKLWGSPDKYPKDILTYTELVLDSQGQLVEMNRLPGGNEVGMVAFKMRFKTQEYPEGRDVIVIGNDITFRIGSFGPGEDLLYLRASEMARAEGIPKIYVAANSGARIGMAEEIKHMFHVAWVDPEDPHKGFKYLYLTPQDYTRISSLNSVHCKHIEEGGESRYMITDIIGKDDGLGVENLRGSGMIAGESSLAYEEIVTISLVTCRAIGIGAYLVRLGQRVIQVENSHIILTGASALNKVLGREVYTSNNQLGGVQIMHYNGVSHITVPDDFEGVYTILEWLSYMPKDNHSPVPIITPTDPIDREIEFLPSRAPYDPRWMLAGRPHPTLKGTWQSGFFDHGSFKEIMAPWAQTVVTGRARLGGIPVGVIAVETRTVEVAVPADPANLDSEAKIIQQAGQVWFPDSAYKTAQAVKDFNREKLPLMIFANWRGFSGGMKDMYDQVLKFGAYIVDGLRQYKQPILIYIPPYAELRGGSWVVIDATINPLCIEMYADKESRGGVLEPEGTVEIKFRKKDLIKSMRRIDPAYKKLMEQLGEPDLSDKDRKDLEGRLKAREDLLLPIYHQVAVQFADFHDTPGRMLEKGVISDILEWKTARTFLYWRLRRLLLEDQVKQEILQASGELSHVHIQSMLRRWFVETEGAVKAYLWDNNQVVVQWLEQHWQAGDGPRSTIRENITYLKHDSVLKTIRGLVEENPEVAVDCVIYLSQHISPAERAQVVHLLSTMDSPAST
assay details: ACC2 assay, spectrophotometric 384 well assay (NADH-linked, coupled lactate dehydrogenase/pyruvate kinase)
Assay type: biochemical
recorded conditions: ACC2 assay, hACC2 construct lacking 128 N-terminal amino acids, 25° C., 340 nm; read-out: IC50
Procedure: Spectrophotometric 384 Well Assay Malonyl CoA formation by acetyl CoA carboxylases is stoichometrically linked to the consumption of ATP. ACC2 activity is measured in a NADH-linked kinetic method measuring ADP generated during the ACC reaction using a coupled lactate dehydrogenase/pyruvate kinase reaction. For biological testing, a human ACC2 construct which lacks the 128 amino acids at the N-terminus for increased solubility (nt 385-6966 in Genbank entry AJ575592) is cloned. […]
property measured: IC50 (nM)

Here's what some known entries look like.
[[record]]
mol = "CC(=O)N[C@@H](C)c1ccc(C2CCN(c3ccnc(OCC4CCC4)c3)CC2)cc1"
assayed_target = "human ACC2 (Homo sapiens, UniProt O00763)"
unit_tag = "nM"
endpoint_value = 140

[[record]]
mol = "C[C@H](NC(=O)C1CC1)c1ccc(C2CCN(c3nc(N(C)CC4CC4)ncc3F)CC2)cc1"
assayed_target = "human ACC2 (Homo sapiens, UniProt O00763)"
unit_tag = "nM"
endpoint_value = 340

[[record]]
mol = "CC(=O)N[C@@H](C)c1ccc(C2CCN(c3ccc(Cl)c(C)c3)CC2)cc1"
assayed_target = "human ACC2 (Homo sapiens, UniProt O00763)"
unit_tag = "nM"
endpoint_value = 600


(a) CC(=O)N[C@@H](C)c1ccc(C2CCN(c3ncc(C(=O)N(C)Cc4ccccn4)cn3)CC2)cc1
(b) CC(=O)N[C@@H](C)c1ccc(C2CCN(c3cc(OCC4CCCC4)ncn3)CC2)cc1
(c) CC(=O)N[C@@H](C)c1ccc(C2CCN(c3ncc(C(=O)N(C)CC4OCCO4)cn3)CC2)cc1
Arrange items by their IC50 values in increasing order. A complete answer lists every label in the requested sequence.
b, a, c
(b: 270 nM, a: 6400 nM, c: 11500 nM)
